# System Under Test: hSSTR-4 (Homo sapiens, UniProt P31391)
# Sequence (P31391 whole entry): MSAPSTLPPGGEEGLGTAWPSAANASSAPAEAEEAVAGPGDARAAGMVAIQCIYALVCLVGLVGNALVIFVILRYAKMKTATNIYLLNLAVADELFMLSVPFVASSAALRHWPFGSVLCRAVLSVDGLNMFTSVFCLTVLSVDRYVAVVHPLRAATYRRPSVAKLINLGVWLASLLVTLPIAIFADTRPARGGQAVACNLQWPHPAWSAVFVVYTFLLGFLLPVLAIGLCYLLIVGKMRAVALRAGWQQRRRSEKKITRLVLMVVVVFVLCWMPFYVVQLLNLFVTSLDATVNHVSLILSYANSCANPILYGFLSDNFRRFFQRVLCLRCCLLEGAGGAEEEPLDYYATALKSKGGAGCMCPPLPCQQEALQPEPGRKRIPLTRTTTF
Bridge positions count the residues as written; N and C are the ends. Square brackets hold non-standard residues; d marks the D form. Peptide text beside a SMILES is read from it. NMeT = CN[C@H](C(=O)O)[C@@H](C)O
Outcome Measure: pKd
pKd is a log-scale quantity: -log10 of the concentration expressed in molar.

# pKd lookup, item C[C@@H](O)[C@@H]1NC(=O)[C@H](CCCCN)NC(=O)[C@@H](Cc2c[nH]c3ccccc23)NC(=O)[C@H](Cc2ccccc2)NC(=O)[C@@H](NC(=O)[C@@H](N)Cc2ccc(O)cc2)CSSC[C@@H](C(=O)N(C)[C@H](C(N)=O)[C@@H](C)O)NC1=O [Example 17] (H-YCF[dW]KTC[NMeT]-NH2; disulfide 2-7; N-terminus assumed)
6.45
